Each recorded value in this set is attributed to the supplement of paper PMC7877785.

# EXPERIMENTAL_PROTOCOL: self-splicing fitness, log relative to wild type (ln ratio); higher = more splicing; Tetrahymena group I intron in knt gene, E. coli kanamycin selection, DiMSum; sequences stand for … in CUCUCU…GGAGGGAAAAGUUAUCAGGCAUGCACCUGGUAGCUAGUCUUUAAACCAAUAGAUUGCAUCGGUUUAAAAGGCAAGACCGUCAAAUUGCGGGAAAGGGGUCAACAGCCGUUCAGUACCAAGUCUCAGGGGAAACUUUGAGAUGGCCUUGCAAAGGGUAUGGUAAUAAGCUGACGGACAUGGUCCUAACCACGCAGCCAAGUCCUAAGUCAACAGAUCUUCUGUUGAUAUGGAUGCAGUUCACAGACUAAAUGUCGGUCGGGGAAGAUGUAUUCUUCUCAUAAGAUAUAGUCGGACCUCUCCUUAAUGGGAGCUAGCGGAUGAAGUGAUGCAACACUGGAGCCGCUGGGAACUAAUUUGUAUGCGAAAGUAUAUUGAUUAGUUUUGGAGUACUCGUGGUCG;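 further: selection with 25 µg/mL kanamycin versus none on LB agar overnight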
# STATED_CONDITIONS: 30 °C
READOUT_KIND: self-splicing fitness (ln)
Keep the answer to the number alone.

The sequence identified as UGUCAGCAAUAUUACGGACG registered its self-splicing fitness (ln) at -2.2

Documented self-splicing fitness (ln) of ACAAAGCAAUAUUACGGCCA : -1.13

self-splicing fitness (ln) for AGUGAGCAAUAUUACGUCAG is -3

GET /value?item= GCUGAGCAAUAUUACGGUCA &field=self-splicing fitness (ln) returns -2.69

Kindly note the recorded self-splicing fitness (ln) for UAUCAGCAAUAUUACGUAAU , which is -1.62

Notebook: GCUGAGCAAUAUUACGAAUA , self-splicing fitness (ln) read as -2.55

Field self-splicing fitness (ln) (entry AAGAAGCAAUAUUACGAGUA ) reads -0.78

// self-splicing fitness (ln) value for CGAAAGCAAUAUUACGAUAG : -0.598

get_value(item= AUAUAGCAAUAUUACGCGAG , readout=self-splicing fitness (ln)) returns -2.35

Field self-splicing fitness (ln) (entry UGUCAGCAAUAUUACGGAUG ) reads -2.07

Measured self-splicing fitness (ln), UGAUAGCAAUAUUACGCGCC : -1.82

GET /value?item= AGGGAGCAAUAUUACGUGCA &field=self-splicing fitness (ln) returns -4.52

Reported self-splicing fitness (ln) of GCGUAGCAAUAUUACGCGAC : -2.5

Lab note: ACCUAGCAAUAUUACGCAAG gave self-splicing fitness (ln) of -2.73

Record GGUCAGCAAUAUUACGUUUU , field self-splicing fitness (ln): -0.899

self-splicing fitness (ln) reported for this sequence UCAGAGCAAUAUUACGGAUU : -3.58

---

# EXPERIMENTAL_PROTOCOL: self-splicing fitness, log relative to wild type (ln ratio); higher = more splicing; Tetrahymena group I intron in knt gene, E. coli kanamycin selection, DiMSum; sequences stand for … in CUCUCU…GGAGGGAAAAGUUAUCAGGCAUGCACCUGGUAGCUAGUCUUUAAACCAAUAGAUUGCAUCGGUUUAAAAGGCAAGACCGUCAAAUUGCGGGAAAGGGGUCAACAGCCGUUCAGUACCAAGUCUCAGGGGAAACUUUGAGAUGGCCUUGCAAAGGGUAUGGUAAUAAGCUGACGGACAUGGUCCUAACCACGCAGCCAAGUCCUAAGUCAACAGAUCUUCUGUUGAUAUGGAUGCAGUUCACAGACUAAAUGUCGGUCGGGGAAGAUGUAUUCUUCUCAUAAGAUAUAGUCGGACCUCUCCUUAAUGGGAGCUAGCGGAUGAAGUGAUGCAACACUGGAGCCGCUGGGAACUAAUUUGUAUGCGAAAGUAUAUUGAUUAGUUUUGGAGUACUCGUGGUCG
# STATED_CONDITIONS: 37 °C
Record form. Attribute: self-splicing fitness (ln). Fill in for each entry.
Kindly provide the number alone.

The sequence listed as GGUCAGCAAUAUUACGAAGC shows self-splicing fitness (ln) equal to -0.0665

# sequence UAGCAGCAAUAUUACGCAGU ; its self-splicing fitness (ln) = -2.18

Per the record, AGUGAGCAAUAUUACGAUAA has self-splicing fitness (ln) of -2.16

// self-splicing fitness (ln) lookup, sequence = CACCAGCAAUAUUACGUCAC , result: -2.9

self-splicing fitness (ln) reported for this sequence GCAAAGCAAUAUUACGGAUC : -0.379

The reported self-splicing fitness (ln) of the sequence ACCUAGCAAUAUUACGAUUG was -2.28

# self-splicing fitness (ln) of GGAUAGCAAUAUUACGGUUU = -0.329

GET /value?item= UAAUAGCAAUAUUACGUAUC &field=self-splicing fitness (ln) returns -2.68

CGCAAGCAAUAUUACGGACA yielded self-splicing fitness (ln) of -0.195

Measured self-splicing fitness (ln), UACGAGCAAUAUUACGAAUG : -1.68

# sequence GCAUAGCAAUAUUACGGACG ; its self-splicing fitness (ln) = -0.659

Form field self-splicing fitness (ln), entry GCGCAGCAAUAUUACGUGCG : -2.7

// UAGGAGCAAUAUUACGGGAG : self-splicing fitness (ln) value = -2.96

self-splicing fitness (ln) in this record for CUGCAGCAAUAUUACGUAUG : -1.19

response.value for GGGGAGCAAUAUUACGGGGC (field: self-splicing fitness (ln)) = -2.2

Field self-splicing fitness (ln) (entry UCGCAGCAAUAUUACGACUG ) reads -2.7

The value of self-splicing fitness (ln) measured for the sequence CGUGAGCAAUAUUACGGUGU turned out to be -1.98

For record GACCAGCAAUAUUACGAAUC the listed self-splicing fitness (ln) is -0.196

Memo: CGGAAGCAAUAUUACGUUUU , reported self-splicing fitness (ln): -2.95

Sure, the documented self-splicing fitness (ln) for CGGCAGCAAUAUUACGUUUA is -1.53

Sample CUACAGCAAUAUUACGGGCU ; self-splicing fitness (ln) observed: -2.97

Documented self-splicing fitness (ln) of CGCUAGCAAUAUUACGGCCU : -0.609

Noted for GGUGAGCAAUAUUACGAGUU : its self-splicing fitness (ln) reads -0.657

Reported self-splicing fitness (ln) ( GAGUAGCAAUAUUACGUACG ) = 0.056

Briefly, self-splicing fitness (ln) measured for UUACAGCAAUAUUACGUUAG : 0.208

# self-splicing fitness (ln) (sequence: UCCCAGCAAUAUUACGAAGU ) is -1.14

The reported value for CGCCAGCAAUAUUACGAUUA in terms of self-splicing fitness (ln) is -2.68

Entry CACCAGCAAUAUUACGCGGA ; self-splicing fitness (ln) = -0.595

self-splicing fitness (ln) in this record for CCAUAGCAAUAUUACGCGGU : -2.5

response.value for UAAAAGCAAUAUUACGUACU (field: self-splicing fitness (ln)) = -0.401

What the record says about CGAUAGCAAUAUUACGAGUC : self-splicing fitness (ln) is -3.73

Please fill in: self-splicing fitness (ln) reported for CCACAGCAAUAUUACGUGAA = -1.01

self-splicing fitness (ln) recorded for this sequence, GGGUAGCAAUAUUACGACUG , is 0.222

GET /value?item= CAAAAGCAAUAUUACGGCGA &field=self-splicing fitness (ln) returns -0.502

---

# EXPERIMENTAL_PROTOCOL: self-splicing fitness, log relative to wild type (ln ratio); higher = more splicing; Tetrahymena group I intron in knt gene, E. coli kanamycin selection, DiMSum; sequences stand for … in CUCUCU…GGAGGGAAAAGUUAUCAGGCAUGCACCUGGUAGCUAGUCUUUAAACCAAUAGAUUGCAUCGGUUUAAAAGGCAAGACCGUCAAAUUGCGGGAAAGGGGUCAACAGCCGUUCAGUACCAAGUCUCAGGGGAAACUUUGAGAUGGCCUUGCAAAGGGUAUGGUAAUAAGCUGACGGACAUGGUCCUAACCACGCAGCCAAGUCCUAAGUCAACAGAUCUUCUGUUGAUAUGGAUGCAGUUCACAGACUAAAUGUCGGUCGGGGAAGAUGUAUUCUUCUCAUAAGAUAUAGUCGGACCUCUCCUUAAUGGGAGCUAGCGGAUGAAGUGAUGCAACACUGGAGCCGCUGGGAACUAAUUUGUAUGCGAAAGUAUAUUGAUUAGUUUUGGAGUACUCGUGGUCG
# STATED_CONDITIONS: 37 °C
READOUT_KIND: self-splicing fitness (ln)
Please give only the number in your answer, with no unit.

self-splicing fitness (ln) for ACCUAGCAAUAUUACGAAUG is -2.3

Just so you know, measured self-splicing fitness (ln) for CCGAAGCAAUAUUACGAAAG came out at -0.965

Data point: CGCUAGCAAUAUUACGGGCC ; self-splicing fitness (ln) = -1.92

self-splicing fitness (ln) in this record for UUUUAGCAAUAUUACGCUUC : -1.81

The measured self-splicing fitness (ln) associated with GUUCAGCAAUAUUACGUGCC reads -1.19

Just so you know, measured self-splicing fitness (ln) for GUGUAGCAAUAUUACGAUAG came out at -0.946

// field: self-splicing fitness (ln); key: AGACAGCAAUAUUACGAGGC ; value = -2.82

self-splicing fitness (ln) in this record for GCACAGCAAUAUUACGAAUC : -0.69
